The measurements presented in this section are drawn from patent US12576099B2.

# systemName: T7 RNA polymerase (Escherichia phage T7)
# Sequence (P00573 whole entry): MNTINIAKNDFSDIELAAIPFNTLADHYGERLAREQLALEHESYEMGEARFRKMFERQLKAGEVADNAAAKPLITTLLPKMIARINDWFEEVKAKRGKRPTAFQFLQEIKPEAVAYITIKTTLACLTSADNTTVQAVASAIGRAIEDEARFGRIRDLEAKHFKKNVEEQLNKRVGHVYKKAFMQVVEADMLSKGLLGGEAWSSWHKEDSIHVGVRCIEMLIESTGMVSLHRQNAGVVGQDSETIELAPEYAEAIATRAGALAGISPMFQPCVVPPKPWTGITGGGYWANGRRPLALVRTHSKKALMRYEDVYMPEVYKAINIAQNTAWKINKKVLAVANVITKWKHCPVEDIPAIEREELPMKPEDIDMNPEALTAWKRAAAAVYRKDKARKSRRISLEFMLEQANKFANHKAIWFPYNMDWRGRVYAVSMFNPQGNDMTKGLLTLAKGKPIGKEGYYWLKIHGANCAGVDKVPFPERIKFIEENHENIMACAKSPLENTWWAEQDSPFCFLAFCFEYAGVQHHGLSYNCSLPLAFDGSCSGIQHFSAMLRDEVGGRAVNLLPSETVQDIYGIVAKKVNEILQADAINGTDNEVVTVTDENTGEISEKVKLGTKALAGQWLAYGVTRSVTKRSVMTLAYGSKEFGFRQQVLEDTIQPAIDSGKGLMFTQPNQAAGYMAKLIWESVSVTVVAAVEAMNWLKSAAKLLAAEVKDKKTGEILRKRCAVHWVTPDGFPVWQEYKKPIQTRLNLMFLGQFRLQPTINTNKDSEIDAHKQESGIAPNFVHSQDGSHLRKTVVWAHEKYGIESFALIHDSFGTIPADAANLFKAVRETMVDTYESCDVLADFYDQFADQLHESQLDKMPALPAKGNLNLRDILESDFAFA
# measurementNotes: In vitro transcription yield of mRNA using cap analogs
# Assay type: biochemical
# cond: in vitro transcription, 1 μg DNA template, 37° C., 2 hours
Answer rule not met if Yield per unit template is under 100 µg, and rule met if it is 100 µg or more.

Examples with answers:
{"compound": "CO[C@@H]1[C@H](OP(=O)(O)OC[C@H]2O[C@@H](n3cnc4c(=O)[nH]c(N)nc43)[C@H](O)[C@@H]2O)[C@@H](COP(=O)(O)OP(=O)(O)OP(=O)(O)OC[C@H]2OC([n+]3cn(C)c4c(=O)[nH]c(N)nc43)[C@H](O)[C@@H](O)[C@@H]2O)O[C@H]1n1cnc2c(N)ncnc21 (some centres unmarked)", "class": "rule not met"}
{"compound": "CO[C@@H]1[C@H](OP(=O)(O)OC[C@H]2O[C@@H](n3cnc4c(=O)[nH]c(N)nc43)[C@H](O)[C@@H]2O)[C@@H](COP(=O)(O)OP(=O)(O)OP(=O)(O)OC[C@H]2O[C@@H]([n+]3cn(C)c4c(=O)[nH]c(N)nc43)[C@H](O)[C@]2(C)C#N)O[C@H]1n1cnc2c(N)ncnc21", "class": "rule not met"}
{"compound": "COC[C@]1(COP(=O)(O)OP(=O)(O)OP(=O)(O)OC[C@H]2O[C@@H](n3cnc4c(N)ncnc43)[C@H](OC)[C@@H]2OP(=O)(O)OC[C@H]2O[C@@H](n3cnc4c(=O)[nH]c(N)nc43)[C@H](O)[C@@H]2O)O[C@@H]([n+]2cn(C)c3c(=O)[nH]c(N)nc32)[C@H](O)[C@@H]1O", "class": "rule met"}
{"compound": "CO[C@@H]1[C@H](OP(=O)(O)OC[C@H]2O[C@@H](n3cnc4c(=O)[nH]c(N)nc43)[C@H](O)[C@@H]2O)[C@@H](COP(=O)(O)OP(=O)(O)OP(=O)(O)OC[C@@]2(CF)O[C@@H]([n+]3cn(C)c4c(=O)[nH]c(N)nc43)[C@H](O)[C@@H]2O)O[C@H]1n1cnc2c(N)ncnc21", "class": "rule met"}
{"compound": "CO[C@@H]1[C@H](OP(=O)(O)OC[C@H]2O[C@@H](n3cnc4c(=O)[nH]c(N)nc43)[C@H](O)[C@@H]2O)[C@@H](COP(=O)(O)OP(=O)(O)OP(=O)(O)OC[C@@]2(C(F)F)O[C@@H]([n+]3cn(C)c4c(=O)[nH]c(N)nc43)[C@H](O)[C@@H]2O)O[C@H]1n1cnc2c(N)ncnc21", "class": "rule met"}
{"compound": "CO[C@@H]1[C@H](OP(=O)(O)OC[C@H]2O[C@@H](n3cnc4c(=O)[nH]c(N)nc43)[C@H](O)[C@@H]2O)[C@@H](COP(=O)(O)OP(=O)(O)OP(=O)(O)OC[C@H]2O[C@@H]([n+]3cn(C)c4c(=O)[nH]c(N)nc43)[C@H](O)[C@]2(C)NC(C)=O)O[C@H]1n1cnc2c(N)ncnc21", "class": "rule met"}

Exercise: Does "CCN(CC)C(=O)[C@H]1[C@@H](O)[C@H]([n+]2cn(C)c3c(=O)[nH]c(N)nc32)O[C@@H]1COP(=O)(O)OP(=O)(O)OP(=O)(O)OC[C@H]1O[C@@H](n2cnc3c(N)ncnc32)[C@H](OC)[C@@H]1OP(=O)(O)OC[C@H]1O[C@@H](n2cnc3c(=O)[nH]c(N)nc32)[C@H](O)[C@@H]1O" have a reported Yield per unit template of at least 100 µg?
Solution: rule met
